Biological target: human FABP5 (huFABP5) (Homo sapiens (Human), UniProt Q01469)
Sequence (Q01469 whole entry): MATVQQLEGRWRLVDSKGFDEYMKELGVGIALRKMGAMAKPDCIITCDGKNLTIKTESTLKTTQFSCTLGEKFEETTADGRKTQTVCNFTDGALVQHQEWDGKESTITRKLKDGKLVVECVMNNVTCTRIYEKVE
Test: Tb TR-FRET assay, binding of Bodipy labeled fatty acid to His6 tagged huFABP5
Details: 50 nM FABP protein, […] Bodipy labeled fatty acid; read-out: IC50 h-fabp5-ecoli-r
pIC50: −log10 of the molar value.
Each record here notes measured pIC50.

structure_smiles | pIC50
O=C(O)[C@H]1CCN1C(=O)Nc1cc(Cl)ccc1-c1cc(F)cc(F)c1 | < 4.30

Request: Lab note: record pIC50 of O=C(O)[C@H]1CSCN1C(=O)Nc1ccccc1-c1ccccc1 tested on human FABP5 (huFABP5) (Homo sapiens (Human), UniProt Q01469).
Result: < 4.30

Request: Lab note: record pIC50 of CCc1ccc(-c2ccccc2)c(NC(=O)N2CCC[C@@H]2C(=O)O)c1 tested on human FABP5 (huFABP5) (Homo sapiens (Human), UniProt Q01469).
Result: < 4.30

Request: Lab note: record pIC50 of O=C(O)[C@H]1CCCN1C(=O)Nc1cc(Cl)ccc1-c1ccc(F)cc1 tested on human FABP5 (huFABP5) (Homo sapiens (Human), UniProt Q01469).
Result: < 4.53

Request: Lab note: record pIC50 of O=C(O)[C@@H]1CCN1C(=O)Nc1cc(Cl)ccc1-c1ccccc1 tested on human FABP5 (huFABP5) (Homo sapiens (Human), UniProt Q01469).
Result: < 4.30

Request: Lab note: record pIC50 of N#Cc1ccc(-c2ccccc2)c(NC(=O)N2CCC[C@@H]2C(=O)O)c1 tested on human FABP5 (huFABP5) (Homo sapiens (Human), UniProt Q01469).
Result: < 4.30

Request: Lab note: record pIC50 of O=C(O)[C@H]1CCN1C(=O)Nc1cc(Cl)ccc1-c1cccc(F)c1F tested on human FABP5 (huFABP5) (Homo sapiens (Human), UniProt Q01469).
Result: < 4.30

Request: Lab note: record pIC50 of O=C(O)[C@H]1CCCN1C(=O)Nc1cc(Cl)cc(-c2ccccc2)c1-c1ccccc1 tested on human FABP5 (huFABP5) (Homo sapiens (Human), UniProt Q01469).
Result: 5.91

Request: Lab note: record pIC50 of O=C(O)[C@H]1CCN1C(=O)Nc1ccccc1-c1ccccc1 tested on human FABP5 (huFABP5) (Homo sapiens (Human), UniProt Q01469).
Result: < 4.30

Request: Lab note: record pIC50 of N#Cc1cc(Cl)cc(NC(=O)N2CCC[C@@H]2C(=O)O)c1-c1ccccc1 tested on human FABP5 (huFABP5) (Homo sapiens (Human), UniProt Q01469).
Result: 4.82

Request: Lab note: record pIC50 of O=C(O)[C@H]1CCCN1C(=O)Nc1cc(F)ccc1-c1ccccc1 tested on human FABP5 (huFABP5) (Homo sapiens (Human), UniProt Q01469).
Result: < 4.30

Request: Lab note: record pIC50 of O=C(O)[C@H]1CCCN1C(=O)Nc1cc(Cl)ccc1C1=CCCCC1 tested on human FABP5 (huFABP5) (Homo sapiens (Human), UniProt Q01469).
Result: < 4.30

Request: Lab note: record pIC50 of O=C(O)[C@H]1CCCN1C(=O)Nc1cc(F)cc(F)c1-c1ccccc1 tested on human FABP5 (huFABP5) (Homo sapiens (Human), UniProt Q01469).
Result: < 5.16
